# credit: paper PMC5705213

Measured Ratio Vmax (i20S/c20S) values are reported for all entries that follow.
target_entity: human immunoproteasome core particle (i20S) (Homo sapiens, UniProt P20618+P28062)
Construct: purchased Boston Biochem E-370
method_description: Purified proteasome activity assay with fluorogenic substrates, SDS-activated i20S
Assay type: biochemical
condition_parameters: i20S/c20S
Where a SMILES comes first, the peptide text is derived from it. The star is where a group is joined. ACC = NC(=O)Cc1cc(=O)oc2cc(N*)ccc12; AMC = Cc1cc(=O)oc2cc(N*)ccc12
Form: value (number only, do not type unit).

- compound: "CC(=O)N[C@@H](C)C(=O)N[C@@H](CC(N)=O)C(=O)N[C@@H](Cc1c[nH]c2ccccc12)C(=O)Nc1ccc2c(C)cc(=O)oc2c1 [Ac-ANW-AMC] (Ac-Ala-Asn-Trp-{AMC})"
  observed_property: "Ratio Vmax (i20S/c20S)"
  measured: 12

*Q* Provide one value: measured Ratio Vmax (i20S/c20S) of `Cc1cc(C(=O)N[C@H](C(=O)N[C@@H](CCC(N)=O)C(=O)N[C@@H](C)C(=O)Nc2ccc3c(CC(N)=O)cc(=O)oc3c2)C(C)C)no1`
*A* 0.28

*Q* Provide one value: measured Ratio Vmax (i20S/c20S) of NC(=O)Cc1cc(=O)oc2cc(NC(=O)[C@H](Cc3c[nH]c4ccccc34)NC(=O)[C@H](Cc3c[nH]cn3)NC(=O)[C@H](Cc3c[nH]c4ccccc34)NC(=O)[C@@H](N)CCC(=O)O)ccc12 [EWHW-ACC] (H-EWHW-{ACC})
*A* 6.0

*Q* Provide one value: measured Ratio Vmax (i20S/c20S) of NC(=O)Cc1cc(=O)oc2cc(NC(=O)[C@H](Cc3c[nH]c4ccccc34)NC(=O)[C@H](Cc3ccccc3)NC(=O)[C@H](Cc3c[nH]c4ccccc34)NC(=O)[C@@H](N)CCC(=O)O)ccc12 [EWFW-ACC] (H-EWFW-{ACC})
*A* 16
